Source listed as the Deep4Chem optical property database.

Measured photoluminescence quantum yield values are reported for all entries that follow.
assay: photoluminescence quantum yield (fraction); solvent given as SMILES; conditions: in ClC(Cl)(Cl)Cl
assay_metric: photoluminescence quantum yield

{"compound": "CCOC(=O)C1=C(C)NC2=C(C(=O)c3ccccc32)C1c1ccc(N(C)C)cc1 (configuration not stated)", "assay_metric": "photoluminescence quantum yield", "obs_value": 0.16}
{"compound": "COc1ccc(/C=C/C2=[O+][B-](F)(F)OC(/C=C/c3ccc(OC)cc3)=C2c2ccccc2)cc1", "assay_metric": "photoluminescence quantum yield", "obs_value": 0.24}
{"compound": "CCCCCCC(CCCCCC)n1c(=O)c2c3ccc4cccc5c6cccc7ccc(c2c1=O)c(c76)c3c45", "assay_metric": "photoluminescence quantum yield", "obs_value": 0.37}
{"compound": "CCCCCCCCOc1ccc2c3cccc4c(OCCCCCCCC)ccc(c5cccc1c52)c43", "assay_metric": "photoluminescence quantum yield", "obs_value": 0.08}
{"compound": "COc1ccc(C2=CC(c3ccc(OC)cc3)=[O+][B-](C(C)=O)(C(C)=O)O2)cc1", "assay_metric": "photoluminescence quantum yield", "obs_value": 1}
{"compound": "Cc1ccc(N(c2ccc(C)cc2)c2ccc(-c3ccc4c(c3)C(=O)c3ccccc3C4=O)cc2)cc1", "assay_metric": "photoluminescence quantum yield", "obs_value": 0.246}
{"compound": "CN(C)/C=N\\c1ccc2c3c(cccc13)C(=O)c1ccccc1-2", "assay_metric": "photoluminescence quantum yield", "obs_value": 0.24}
